# testTarget: Apolipoprotein B-100 (Homo sapiens)
# Sequence (P04114 whole entry C1422Y): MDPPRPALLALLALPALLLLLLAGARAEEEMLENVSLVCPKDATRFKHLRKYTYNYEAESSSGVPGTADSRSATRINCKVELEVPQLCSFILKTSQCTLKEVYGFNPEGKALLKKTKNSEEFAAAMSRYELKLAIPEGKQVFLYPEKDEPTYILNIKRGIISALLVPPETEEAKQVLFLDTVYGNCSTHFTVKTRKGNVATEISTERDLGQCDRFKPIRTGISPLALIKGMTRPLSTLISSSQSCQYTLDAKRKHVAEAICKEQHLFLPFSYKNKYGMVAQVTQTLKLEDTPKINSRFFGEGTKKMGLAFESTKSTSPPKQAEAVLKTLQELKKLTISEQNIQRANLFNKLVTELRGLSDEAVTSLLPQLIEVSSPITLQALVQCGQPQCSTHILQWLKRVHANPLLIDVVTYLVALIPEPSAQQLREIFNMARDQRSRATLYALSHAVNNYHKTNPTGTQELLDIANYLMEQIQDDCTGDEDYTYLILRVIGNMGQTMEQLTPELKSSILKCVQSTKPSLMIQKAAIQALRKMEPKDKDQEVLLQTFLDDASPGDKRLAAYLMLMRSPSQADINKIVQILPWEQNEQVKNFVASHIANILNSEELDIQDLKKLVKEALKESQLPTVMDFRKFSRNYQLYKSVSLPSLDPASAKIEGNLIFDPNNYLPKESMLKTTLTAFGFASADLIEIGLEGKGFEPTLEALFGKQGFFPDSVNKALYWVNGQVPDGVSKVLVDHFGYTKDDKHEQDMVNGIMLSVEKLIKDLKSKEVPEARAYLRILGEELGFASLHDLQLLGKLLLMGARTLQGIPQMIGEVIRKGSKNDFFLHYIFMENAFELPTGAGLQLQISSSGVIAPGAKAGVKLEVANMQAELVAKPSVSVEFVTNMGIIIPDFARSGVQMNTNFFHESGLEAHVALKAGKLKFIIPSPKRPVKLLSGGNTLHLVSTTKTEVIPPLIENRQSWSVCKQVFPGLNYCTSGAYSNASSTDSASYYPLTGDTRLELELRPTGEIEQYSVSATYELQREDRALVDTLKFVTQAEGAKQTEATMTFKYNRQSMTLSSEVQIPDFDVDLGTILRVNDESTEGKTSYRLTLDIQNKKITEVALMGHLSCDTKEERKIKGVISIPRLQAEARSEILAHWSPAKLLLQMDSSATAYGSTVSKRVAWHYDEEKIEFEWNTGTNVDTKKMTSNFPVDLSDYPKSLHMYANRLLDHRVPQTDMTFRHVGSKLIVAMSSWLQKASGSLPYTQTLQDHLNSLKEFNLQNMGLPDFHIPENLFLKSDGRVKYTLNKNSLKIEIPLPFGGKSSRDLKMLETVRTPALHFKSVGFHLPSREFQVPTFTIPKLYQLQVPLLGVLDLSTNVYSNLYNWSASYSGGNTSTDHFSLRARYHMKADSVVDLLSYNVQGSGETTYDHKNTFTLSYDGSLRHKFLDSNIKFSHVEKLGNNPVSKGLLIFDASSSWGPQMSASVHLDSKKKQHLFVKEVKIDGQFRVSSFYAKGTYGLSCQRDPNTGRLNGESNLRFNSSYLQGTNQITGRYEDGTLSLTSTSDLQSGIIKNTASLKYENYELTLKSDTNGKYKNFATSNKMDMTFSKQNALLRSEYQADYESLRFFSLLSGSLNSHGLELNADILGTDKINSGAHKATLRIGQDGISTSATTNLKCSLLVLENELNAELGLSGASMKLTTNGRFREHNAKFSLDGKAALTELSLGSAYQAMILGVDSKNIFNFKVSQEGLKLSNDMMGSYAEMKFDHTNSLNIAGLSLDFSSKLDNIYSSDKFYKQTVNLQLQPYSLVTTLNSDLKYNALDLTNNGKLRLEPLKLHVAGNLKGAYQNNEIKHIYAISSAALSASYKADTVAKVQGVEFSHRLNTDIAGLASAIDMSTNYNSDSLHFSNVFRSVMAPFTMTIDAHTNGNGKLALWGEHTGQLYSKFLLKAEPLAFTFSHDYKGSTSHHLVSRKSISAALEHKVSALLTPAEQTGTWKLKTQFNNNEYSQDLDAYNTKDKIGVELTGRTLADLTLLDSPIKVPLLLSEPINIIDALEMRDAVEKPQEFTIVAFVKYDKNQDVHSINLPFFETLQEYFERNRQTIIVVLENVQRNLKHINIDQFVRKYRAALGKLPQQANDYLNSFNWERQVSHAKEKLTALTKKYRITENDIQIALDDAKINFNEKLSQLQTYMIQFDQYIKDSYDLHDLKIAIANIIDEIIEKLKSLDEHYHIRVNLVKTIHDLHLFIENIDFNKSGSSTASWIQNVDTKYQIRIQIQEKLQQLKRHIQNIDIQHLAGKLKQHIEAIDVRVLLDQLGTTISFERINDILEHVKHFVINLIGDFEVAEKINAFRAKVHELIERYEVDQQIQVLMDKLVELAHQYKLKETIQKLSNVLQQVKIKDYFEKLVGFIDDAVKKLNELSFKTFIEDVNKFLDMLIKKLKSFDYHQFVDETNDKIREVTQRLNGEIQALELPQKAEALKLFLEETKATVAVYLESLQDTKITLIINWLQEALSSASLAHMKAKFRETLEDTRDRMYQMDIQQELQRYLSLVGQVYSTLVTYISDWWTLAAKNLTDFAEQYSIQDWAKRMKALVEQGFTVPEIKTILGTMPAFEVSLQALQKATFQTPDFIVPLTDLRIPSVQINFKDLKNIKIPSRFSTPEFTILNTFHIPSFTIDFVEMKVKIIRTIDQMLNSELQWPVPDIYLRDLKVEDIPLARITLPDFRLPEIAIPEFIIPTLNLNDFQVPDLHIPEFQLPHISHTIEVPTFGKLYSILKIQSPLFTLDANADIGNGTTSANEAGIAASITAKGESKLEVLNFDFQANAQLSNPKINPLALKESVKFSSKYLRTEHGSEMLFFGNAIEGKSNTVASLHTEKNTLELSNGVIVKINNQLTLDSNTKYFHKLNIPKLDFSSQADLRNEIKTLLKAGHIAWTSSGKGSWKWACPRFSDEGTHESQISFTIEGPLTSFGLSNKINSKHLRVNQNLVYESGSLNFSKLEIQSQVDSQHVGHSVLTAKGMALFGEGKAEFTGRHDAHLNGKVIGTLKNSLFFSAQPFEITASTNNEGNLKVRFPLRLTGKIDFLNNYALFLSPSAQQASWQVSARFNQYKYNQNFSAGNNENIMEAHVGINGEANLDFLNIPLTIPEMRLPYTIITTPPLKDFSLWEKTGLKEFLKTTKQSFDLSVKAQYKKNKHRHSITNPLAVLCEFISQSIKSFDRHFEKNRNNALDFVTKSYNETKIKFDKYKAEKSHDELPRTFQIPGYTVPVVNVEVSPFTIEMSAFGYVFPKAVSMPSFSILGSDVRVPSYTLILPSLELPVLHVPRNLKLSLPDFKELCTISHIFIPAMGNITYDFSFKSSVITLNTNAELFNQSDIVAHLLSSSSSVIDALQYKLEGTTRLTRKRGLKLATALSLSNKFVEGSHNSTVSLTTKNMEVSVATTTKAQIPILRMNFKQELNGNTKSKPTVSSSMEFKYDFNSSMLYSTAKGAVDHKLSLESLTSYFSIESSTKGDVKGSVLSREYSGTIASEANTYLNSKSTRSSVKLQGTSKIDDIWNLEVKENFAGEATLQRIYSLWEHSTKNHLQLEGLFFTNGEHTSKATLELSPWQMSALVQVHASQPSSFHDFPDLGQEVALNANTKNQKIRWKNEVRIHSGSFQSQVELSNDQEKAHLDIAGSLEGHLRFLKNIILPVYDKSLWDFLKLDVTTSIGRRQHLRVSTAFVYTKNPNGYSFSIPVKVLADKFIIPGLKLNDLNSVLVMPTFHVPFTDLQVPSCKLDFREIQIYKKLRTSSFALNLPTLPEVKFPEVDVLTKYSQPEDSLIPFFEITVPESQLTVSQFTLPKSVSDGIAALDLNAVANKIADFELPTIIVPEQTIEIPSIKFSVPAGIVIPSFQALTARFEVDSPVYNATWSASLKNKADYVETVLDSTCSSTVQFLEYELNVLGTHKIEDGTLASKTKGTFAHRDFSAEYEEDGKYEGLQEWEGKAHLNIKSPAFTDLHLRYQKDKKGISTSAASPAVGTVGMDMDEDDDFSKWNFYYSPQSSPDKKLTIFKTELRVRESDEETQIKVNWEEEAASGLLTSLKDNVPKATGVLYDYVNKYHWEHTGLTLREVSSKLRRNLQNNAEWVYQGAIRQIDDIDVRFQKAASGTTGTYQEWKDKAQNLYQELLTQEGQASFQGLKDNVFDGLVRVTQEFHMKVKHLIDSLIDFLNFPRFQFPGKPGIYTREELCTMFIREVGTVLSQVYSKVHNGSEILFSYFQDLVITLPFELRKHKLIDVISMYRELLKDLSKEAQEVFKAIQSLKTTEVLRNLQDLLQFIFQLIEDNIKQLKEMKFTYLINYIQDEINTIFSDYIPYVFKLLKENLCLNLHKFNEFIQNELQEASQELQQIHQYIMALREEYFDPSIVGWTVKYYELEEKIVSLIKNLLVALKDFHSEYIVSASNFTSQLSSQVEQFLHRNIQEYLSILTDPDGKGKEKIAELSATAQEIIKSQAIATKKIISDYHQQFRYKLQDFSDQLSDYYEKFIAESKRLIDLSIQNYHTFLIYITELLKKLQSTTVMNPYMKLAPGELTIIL
# procedureText: Inhibition of apolipoprotein B (apoB) secreted by human hepatoma cells (Hep G2) […]
pIC50: −log10 of the molar value.
readoutType: pIC50

Example entries and their recorded answers appear below.
• COC(=O)NC1CCc2ccc(NC(=O)c3cccc(C)c3-c3ccc(C(F)(F)F)cc3)cc2CC1 (centres undefined) = 8.80
• COC(=O)N[C@H]1Cc2ccc(NC(=O)c3cc(C(F)(F)F)ccc3-c3ccc(C(F)(F)F)cc3)cc2C1 = 8.12

1: Cc1cccc(C(=O)Nc2ccc3c(c2)C[C@H](NS(C)(=O)=O)C3)c1-c1ccc(C(F)(F)F)cc1
2: COC(=O)N[C@@H]1Cc2ccc(NC(=O)c3cccc(C)c3-c3ccc(C(F)(F)F)cc3)cc2C1
Challenge: Hi there, can you help? I need to know whether 1 or 2 has lower measured pIC50. I would appreciate it if you answered with the label of your choice.
Response given: 2

----------
# testTarget: Apolipoprotein B-100 (Homo sapiens)
# procedureText: Inhibition of apolipoprotein B (apoB) secreted by human hepatoma cells (Hep G2) […]
readoutType: IC50 (nM)

• COc1cccc(C(=O)Nc2ccc3c(c2)CC(NS(C)(=O)=O)C3)c1-c1ccc(Cl)cc1 (centres undefined) = 15

1: Cc1cccc(C(=O)Nc2ccc3c(c2)CCC(NS(C)(=O)=O)CC3)c1-c1ccc(C(F)(F)F)cc1 (centres undefined)
2: CC(=O)NC1Cc2ccc(NC(=O)c3ccccc3-c3ccc(C(F)(F)F)cc3)cc2C1 (centres undefined)
3: CS(=O)(=O)NC1Cc2ccc(NC(=O)c3ccccc3-c3ccc(C(F)(F)F)cc3)cc2C1 (centres undefined)
Challenge: Rank descending by IC50. Form entry: labels listed in requested order.
Response given: 2, 3, 1
(2: 120 nM, 3: 60 nM, 1: 2.3 nM)

----------
# testTarget: Apolipoprotein B-100 (Homo sapiens)
# procedureText: Inhibition of apolipoprotein B (apoB) secreted by human hepatoma cells (Hep G2) […]
pIC50: −log10 of the molar value.
readoutType: pIC50

Examples with their reported pIC50 follow.
* COC(=O)NC1Cc2ccc(NC(=O)c3cc(C)cc(C)c3-c3ccc(Cl)cc3)cc2C1 (stereo not given) | 8.47
* COC(=O)N[C@H]1Cc2ccc(NC(=O)c3ccccc3-c3ccc(C(F)(F)F)cc3)cc2C1 | 8.72
* Cc1cccc(C(=O)Nc2ccc3c(c2)C[C@@H](NS(C)(=O)=O)C3)c1-c1ccc(C(F)(F)F)cc1 | 8.06

A: COC(=O)N[C@H]1Cc2ccc(NC(=O)c3cccc(C)c3-c3ccc(C(F)(F)F)cc3)cc2C1
B: Cc1cccc(C(=O)Nc2ccc3c(c2)CC(CNS(=O)(=O)c2cccs2)C3)c1-c1ccc(C(F)(F)F)cc1 (stereo not given)
Challenge: Thinking about recorded pIC50 values, which is higher, A or B ? Record your answer as the label of the chosen record.
Response given: A

Measured values drawn from BindingDB's records for doi:10.1021/jm010294e for this set.
